Tested on: SF-295
method: NCI tumour cell line growth inhibition, 48 h
Active and inactive are the calls of the source. No stated cut-off is given here; in the data, active = GI50 up to about 1.1 µM and inactive = higher.
Outcomes: active, inactive

| compound | class |
| --- | --- |
| CC(C)=C1C2CC3(C)CCC2(C)CCC13.CC1=CCC2C3(C)CCC2(C(C)C)C1C3 (stereo not given) | inactive |
| O=C1NC(=S)N/C1=C/c1c(-c2ccccc2)[nH]c2ccccc12 | inactive |
| CC(C)=CCNc1ncnc2c1ncn2CCC(=O)OC(C)(C)C | inactive |
| OC1COC2CC(Nc3ccccn3)OC12 (stereo not given) | inactive |
| C[C@]12CC[C@@H]3c4ccc(O)cc4CC[C@H]3[C@@H]1C/C(=C\c1ccc([N+](=O)[O-])cc1)C2=O | inactive |
| CCOCCOc1ccc(OCCOCC)cc1 | inactive |
| CCCCCCCCCCCCCCCC(=O)Nc1ccn(C2CC(OP(=O)(O)OCC3OC(n4cc(F)c(=O)[nH]c4=O)CC3OC(C)=O)C(CO)O2)c(=O)n1 (stereo not given) | inactive |
| COC(=O)c1ccccc1NC(=S)NN(C)C | inactive |
| O=S(=O)(O)CCCC1S(=O)(=O)OCCOS1(=O)=O | inactive |
| CC(Cc1ccc(O)c(O)c1)C(C)Cc1ccc(O)c(O)c1 (stereo not given) [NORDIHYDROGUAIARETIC ACID] | inactive |
| CCc1nc2ccc(NCCN(C)C)c3c(=O)c4ccccc4n1c23 | active |
| C=CC(Br)(CBr)CCC(Br)C(C)(C)Cl (stereo not given) | inactive |
| O=C1CCN(CCC(F)(F)C(F)(F)C(F)(F)C(F)(F)F)C(=S)N1 | inactive |
| N=C(N)c1ccc(/N=N\c2c(O)c(C(=O)Nc3ccccc3)cc3ccccc23)cc1 | inactive |
| COc1ccc2c(c1)/C(=C\c1c(Cl)n(-c3ccccc3)c3ccccc13)C(=O)N2 | inactive |
| CCN1CCC(C)OP1(=O)Cc1ccccc1 (stereo not given) | inactive |
| Cc1ccccc1NC(=O)CC(=O)n1nc(-c2ccccc2)c(/N=N/c2ccc([N+](=O)[O-])cc2)c1-c1ccccc1 | inactive |
| c1ccc2cc(CNCCCCNCCCNCc3ccc4ccccc4c3)ccc2c1 | inactive |
| COC(=O)C1(Cc2ccccc2)Cc2cc3c(cc2C1)CCC3 | inactive |
| CC(=O)O[C@H]1C[C@@H](OC(C)=O)[C@@](C)(O)[C@@H]2[C@@H](OC(C)=O)[C@@]3(O)[C@H](/C=C(/CO)[C@H]4O[C@H]4[C@@H](OC(C)=O)[C@@]12C)OC(=O)[C@@H]3C | inactive |
| Cc1cc2ccccc2n2c1nc1ccc(O)cc12 | inactive |
| COc1ccc(/C=C2/C[N+](C)(C)C/C(=C/c3ccc(OC)cc3)C2=O)cc1 | inactive |
| Cc1nc(Nc2ccc([N+](=O)[O-])cc2)sc1C(=O)/C=C/c1ccc(N(C)C)cc1 | inactive |
| O=C(O)C(Cc1ccc(O)cn1)NC(=O)C(F)(F)F (stereo not given) | inactive |
| COc1ccc2oc(=N)c(C(N)=S)cc2c1 | inactive |
| CC(Oc1ccc(OCC2CCCCC2)cc1)C(=O)NCCO (stereo not given) | inactive |
| COc1cc2nc(-c3cccs3)nc(Cl)c2cc1OC | inactive |
| COc1ccc([C@@H]2CC(=O)N2)cc1 | inactive |
| CC1OC(O[C@H]2CC[C@]3(C)[C@H]4CC=C5[C@@H]6[C@@H](C)[C@H](C)CC[C@]6(C(=O)OC6OC(CO)C(O)C(O)C6O)CC[C@@]5(C(=O)O)[C@]4(C)CC[C@H]3C2(C)C)C(O)C(O)C1O (stereo not given in full) | inactive |
| CC(C)C(Sc1nc(-c2ccccc2)c(-c2ccccc2)[nH]1)C(=O)NN (stereo not given) | inactive |
| O=C(c1ccccc1)c1ccc2[nH]c(-c3c(Cl)c(Cl)c(Cl)c(Cl)c3C(=O)N/N=C/c3cccc(Oc4ccccc4)c3)nc2c1 | inactive |
| NS(=O)(=O)c1ccc(/N=N/c2ccc(O)c(O)c2)cc1 | inactive |
| CN(CCNC(=O)c1cc(-c2ccccc2)nc2ccccc12)CCNC(=O)c1cc(-c2ccccc2)nc2ccccc12 | inactive |
| C/C(=N\O)C1CC(CC(=O)O)C1(C)C (stereo not given) | inactive |
| COc1ccc(-c2cc(O)c3nc4ccccc4n3c2)cc1 | inactive |
| COc1c2c(c(OC)c3c1c(=O)c1ccccc1n3C)OCO2 | inactive |
| Cc1ccc2cccc3c2c1CC1(C3=O)S(=O)(=O)OCCOS1(=O)=O | inactive |
| CC[C@H]1C[C@@H](O)[C@@H]2[C@H](O)[C@H](O)CN2C1 | inactive |
| O=C1C2=C(CCCC2)Nc2cccc3ncn1c23 | inactive |
| C=CCCCN1CCCC(C)C1=S (stereo not given) | inactive |
